Cited source for all entries: patent US5393748A

# System: parathyroid hormone stimulated bone resorption in mouse calvaria
# assay procedure: Parathyroid hormone stimulated bone resorption inhibition in vitro in mouse calvaria
# Assay type: cell-based
# study conditions: 100 μm
# Experimental: The parathyroid hormone stimulated bone resorption inhibition activity of the compounds in vitro in mouse calvaria, as well as the inhibition of retinoid induced bone resorption in thyroparathyroidectomised rats in vivo were determined (Reynolds & Dingle (Calc Tiss Res 1970; 4:339, and Trechsel et al. (J Clin Invest 1987; 80:1679)).
Note to self: values exactly at 40% are Satisfied. So Inhibition of resorption (%), in vitro at or above 40% is Satisfied, below is Not satisfied.

Completed entries (count: 4):
CCOP(=O)(O)C(Nc1ccccn1)P(=O)(O)OCC (centres unmarked) : Not satisfied
Cc1cccnc1NC(P(=O)(O)O)P(=O)(O)O [reference compound] : Satisfied
CC(C)OP(=O)(O)C(Sc1ccccn1)P(=O)(O)O (centres unmarked) : Satisfied
CCOP(=O)(O)C(Nc1ncccc1C)P(=O)(O)OCC (centres unmarked) : Satisfied

Attention now shifts to the item below.
Test whether the compound O=P(O)(O)C(Nc1ccccn1)P(=O)(O)O [reference compound] records Inhibition of resorption (%), in vitro of 40% or higher.
Satisfied
